Data origin, for the record: paper PMC6352938

- Tested target: hCA I (Homo sapiens)
- Sequence (P00915 whole entry): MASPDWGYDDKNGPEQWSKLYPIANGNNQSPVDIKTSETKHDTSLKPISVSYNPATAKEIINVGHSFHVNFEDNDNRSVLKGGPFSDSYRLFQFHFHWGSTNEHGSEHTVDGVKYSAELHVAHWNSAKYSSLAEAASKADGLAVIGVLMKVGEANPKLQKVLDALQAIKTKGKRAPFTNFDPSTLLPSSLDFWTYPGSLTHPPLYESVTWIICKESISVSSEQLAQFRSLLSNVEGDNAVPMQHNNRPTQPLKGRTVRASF
- Procedure summary: stopped-flow CO2 hydratase inhibition assay, hCA I
- Format: biochemical
- Measurement context: mean from 3 assays
Reported endpoint: pIC50
Note on units: pIC50 is unitless, being -log10 of a concentration expressed in mol/L.

INSERT INTO measurements (structure_smiles_string, value_reported) VALUES
  ('Cn1nc(S(N)(=O)=O)sc1=NC(=O)c1ccc(C(C)(C)C)cc1', 5.84);

Now take the following compound into account.
Q: What value of pIC50 has been recorded for this entry: `CC(C)(C)OC(=O)NCCNC(=O)c1ccc(S(N)(=O)=O)cc1`
A: 6.43
